Record form. Attribute: hCB2 Emax ±SEM. Fill in for each entry.
ASSAY_SYSTEM: human CB2 (Homo sapiens, UniProt P34972)
Sequence (P34972 whole entry): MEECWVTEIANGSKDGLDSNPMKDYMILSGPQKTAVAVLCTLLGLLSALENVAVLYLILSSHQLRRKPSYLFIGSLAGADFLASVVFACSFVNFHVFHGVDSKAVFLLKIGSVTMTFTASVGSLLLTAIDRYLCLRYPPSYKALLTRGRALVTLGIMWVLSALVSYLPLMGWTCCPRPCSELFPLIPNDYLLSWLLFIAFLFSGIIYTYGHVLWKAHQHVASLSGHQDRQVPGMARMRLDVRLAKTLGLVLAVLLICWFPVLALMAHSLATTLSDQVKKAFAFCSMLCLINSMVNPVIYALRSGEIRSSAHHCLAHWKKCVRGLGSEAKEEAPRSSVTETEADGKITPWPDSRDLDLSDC
ASSAY_COMMENT: fluorescence-based membrane potential assay (GIRK activation) in AtT20 cells
Format: cell-based
Parameters: expressed in transfected cells; host or cells: mouse AtT20 FlpIn cells
TEST_CONDITIONS: AtT20-hCB2; normalised to 1 μM CP55,940

- MOLECULE: "CC(C)[C@H](NC(=O)c1cn(CCCCC#N)c2ccccc12)C(N)=O [Compound 5]"
  ASSAY_SYSTEM: "human CB2 (Homo sapiens, UniProt P34972)"
  hCB2 Emax ±SEM: "100 ± 2 % CP55,940"

Please state, for each entry, its recorded hCB2 Emax ±SEM.
1. COC(=O)[C@H](Cc1ccccc1)NC(=O)c1cn(CCCCF)c2ccccc12 [Compound 35]
2. CC(C)(C)[C@H](NC(=O)c1cn(CCCCF)c2ccccc12)C(N)=O [Compound 26]
3. CC(C)(C)[C@H](NC(=O)c1cn(CCCCC#N)c2ncccc12)C(N)=O [Compound 15]
4. CC(C)[C@H](NC(=O)c1nn(CCCCF)c2ccccc12)C(N)=O [Compound 28]
5. CC(C)(C)[C@H](NC(=O)c1cn(CCCCC#N)c2ccccc12)C(N)=O [Compound 9]
6. CC(C)[C@H](NC(=O)c1nn(CCCCC#N)c2ccccc12)C(N)=O [Compound 11]
7. COC(=O)[C@@H](NC(=O)c1cn(CCCCC#N)c2ccccc12)C(C)C [Compound 17]
8. NC(=O)[C@H](Cc1ccccc1)NC(=O)c1nn(CCCCF)c2ccccc12 [Compound 30]

Marked response:
100 ± 2 % CP55,940
105 ± 4 % CP55,940
96 ± 1 % CP55,940
96 ± 1 % CP55,940
106 ± 6 % CP55,940
103 ± 1 % CP55,940
95 ± 3 % CP55,940
101 ± 12 % CP55,940

Please state, for each entry, its recorded hCB2 Emax ±SEM.
1. COC(=O)[C@@H](NC(=O)c1nn(CCCCC#N)c2ccccc12)C(C)(C)C [Compound 20]
2. N#CCCCCn1cc(C(=O)N[C@@H](Cc2ccccc2)C(N)=O)c2ccccc21 [Compound 10]

Marked response:
1. 101 ± 2 % CP55,940
2. 95 ± 3 % CP55,940

Please state, for each entry, its recorded hCB2 Emax ±SEM.
1. CC(C)[C@H](NC(=O)c1cn(CCCCC#N)c2ncccc12)C(N)=O [Compound 14]
2. CC(C)(C)[C@H](NC(=O)c1nn(CCCCC#N)c2ccccc12)C(N)=O [Compound 12]
3. COC(=O)[C@@H](NC(=O)c1cn(CCCCF)c2ccccc12)C(C)(C)C [Compound 7]
4. COC(=O)[C@@H](NC(=O)c1nn(CCCCC#N)c2ccccc12)C(C)C [Compound 6]
5. COC(=O)[C@@H](NC(=O)c1cn(CCCCF)c2ccccc12)C(C)C [Compound 34]
6. CC(C)(C)[C@H](NC(=O)c1nn(CCCCF)c2ccccc12)C(N)=O [Compound 29]
7. COC(=O)[C@@H](NC(=O)c1cn(CCCCF)c2ncccc12)C(C)C [Compound 38]

Marked response:
87 ± 5 % CP55,940
96 ± 2 % CP55,940
110 ± 3 % CP55,940
101 ± 4 % CP55,940
102 ± 2 % CP55,940
103 ± 2 % CP55,940
114 ± 6 % CP55,940

Please state, for each entry, its recorded hCB2 Emax ±SEM.
1. N#CCCCCn1nc(C(=O)N[C@@H](Cc2ccccc2)C(N)=O)c2ccccc21 [Compound 13]
2. COC(=O)[C@H](Cc1ccccc1)NC(=O)c1nn(CCCCC#N)c2ccccc12 [Compound 21]
3. CC(C)[C@H](NC(=O)c1cn(CCCCF)c2ccccc12)C(N)=O [Compound 25]
4. COC(=O)[C@@H](NC(=O)c1nn(CCCCF)c2ccccc12)C(C)(C)C [Compound 8]
5. COC(=O)[C@@H](NC(=O)c1cn(CCCCC#N)c2ccccc12)C(C)(C)C [Compound 18]
6. NC(=O)[C@H](Cc1ccccc1)NC(=O)c1cn(CCCCF)c2ncccc12 [Compound 33]
7. COC(=O)[C@@H](NC(=O)c1cn(CCCCF)c2ncccc12)C(C)(C)C [Compound 39]

Marked response:
1. 107 ± 11 % CP55,940
2. 100 ± 2 % CP55,940
3. 97 ± 2 % CP55,940
4. 103 ± 5 % CP55,940
5. 101 ± 4 % CP55,940
6. 99 ± 12 % CP55,940
7. 95 ± 2 % CP55,940

Please state, for each entry, its recorded hCB2 Emax ±SEM.
1. COC(=O)[C@H](Cc1ccccc1)NC(=O)c1cn(CCCCC#N)c2ncccc12 [Compound 24]
2. COC(=O)[C@@H](NC(=O)c1nn(CCCCF)c2ccccc12)C(C)C [Compound 36]
3. COC(=O)[C@H](Cc1ccccc1)NC(=O)c1cn(CCCCC#N)c2ccccc12 [Compound 19]
4. COC(=O)[C@@H](NC(=O)c1cn(CCCCC#N)c2ncccc12)C(C)(C)C [Compound 23]

Marked response:
1: 104 ± 2 % CP55,940; 2: 100 ± 2 % CP55,940; 3: 105 ± 3 % CP55,940; 4: 106± 5 % CP55,940

Please state, for each entry, its recorded hCB2 Emax ±SEM.
1. CC(C)(C)[C@H](NC(=O)c1cn(CCCCF)c2ncccc12)C(N)=O [Compound 32]
2. CC(C)[C@H](NC(=O)c1cn(CCCCF)c2ncccc12)C(N)=O [Compound 31]

Marked response:
1: 108 ± 2 % CP55,940; 2: 98 ± 4 % CP55,940

Please state, for each entry, its recorded hCB2 Emax ±SEM.
1. NC(=O)[C@H](Cc1ccccc1)NC(=O)c1cn(CCCCF)c2ccccc12 [Compound 27]
2. COC(=O)[C@@H](NC(=O)c1cn(CCCCC#N)c2ncccc12)C(C)C [Compound 22]
3. COC(=O)[C@H](Cc1ccccc1)NC(=O)c1nn(CCCCF)c2ccccc12 [Compound 37]
4. COC(=O)[C@H](Cc1ccccc1)NC(=O)c1cn(CCCCF)c2ncccc12 [Compound 40]

Marked response:
1. 108 ± 8 % CP55,940
2. 95 ± 4 % CP55,940
3. 101 ± 3 % CP55,940
4. 110 ± 6 % CP55,940
